Consider the following compounds and their measured Percent Effect readings.
- Tgt: Aspartate--tRNA(Asp/Asn) ligase (Mycobacterium tuberculosis (strain ATCC 25618 / H37Rv))
- Experiment Summary: Assay for Asp RNA synthetase-1 from Mycobacterium tuberculosis
- Assay type: functional
- Design: scale not given: in the data most compounds retested in dose-response had high values
- Measurement Setup: 30 µM
Write it as a number; the unit % goes unstated.

Use these answered entries as a reference point.
Cc1nn(C(C)C)c(C)c1NC(=O)c1ccncc1 : -0.479
CC(C)NC(=O)[C@@H]1C[C@H](N)CN1C(=O)c1cc2ccccc2[nH]c1=O : -2.73
CC(C)COCC(NC(=O)c1cc[nH]n1)c1ccco1 (stereo unspecified) : 7.45
CCCNC(=O)CCC(=O)Nc1ccc(-n2cncn2)c(F)c1 : -1.12
Cc1cnn(CC2CCCN2C(=O)c2ccc3cc[nH]c3c2)c1 (stereo unspecified) : -4.26

Now consider the entry below.
# return recorded Percent Effect for input CCN(CCn1cccn1)Cc1nc(-c2ccccc2F)oc1C
-0.808

These measurements were taken from ChEMBL document CHEMBL3988442.
